Please respond with reported Emax for every item in the list.
- Tested on: BxPC-3 human pancreatic adenocarcinoma cells
- experiment: Comparative study of the activity of camptothecins (CCK-8 cell killing)
- Format: cell-based
- testContext: Homo sapiens, BXPC-3, 96 h, read-out: Maximum Killing (%), BxPC-3, killing days 4 days
- Method: KB oral epithelial cancer cells (purchased from: ATCC) were cultured in DMEM medium supplemented with 10% FBS; NCI-N87 human gastric cancer cells (purchased from: ATCC) were cultured in RPMI1640 medium supplemented with 10% FBS; HT29 human colon cancer cells (purchased from: ATCC) were cultured in RPMI1640 medium supplemented with 10% FBS; and BxPC-3 human pancreatic adenocarcinoma cells (purchased from: ATCC) were cultured in RPMI1640 medium supplemented with 10% FBS. […]
Give bare numbers, in %.

Example results:
{"compound": "CC[C@@]1(O)C(=O)OCc2c1cc1n(c2=O)Cc2c-1nc1cc(F)c(N)c3c1c2CCO3", "Emax, %": 99.6}
{"compound": "CC[C@@]1(O)C(=O)OCc2c1cc1n(c2=O)Cc2c-1nc1ccc(N)c3c1c2C(F)(F)CS3", "Emax, %": 98.9}
{"compound": "CC[C@@]1(O)C(=O)OCc2c1cc1n(c2=O)Cc2c-1nc1cc(F)c(N)c3c1c2C(F)(F)CS3", "Emax, %": 97.7}
{"compound": "CC[C@@]1(O)C(=O)OCc2c1cc1n(c2=O)Cc2c-1nc1ccc(N)c3c1c2CC[S@+]3[O-] [Compound 14-P1]", "Emax, %": 38.8}
{"compound": "CC[C@@]1(O)C(=O)OCc2c1cc1n(c2=O)Cc2c-1nc1ccc(N)c3c1c2CCS3(=O)=O", "Emax, %": 87.9}

Hey, can you go through the list below and give me Emax for every item?
1. CC[C@@]1(O)C(=O)OCc2c1cc1n(c2=O)Cc2c-1nc1cc(F)c(N)c3c1c2CCS3
2. CC[C@@]1(O)C(=O)OCc2c1cc1n(c2=O)Cc2c-1nc1ccc(N)c3c1c2CCO3

Reply:
1. 99.1
2. 84.7

----------
- Tested on: BT-474
- experiment: Proliferation-inhibiting effect on tumor cells (SRB or MTT assay)
- Format: cell-based
- testContext: Homo sapiens, BT-474, 144 h, read-out: IC50 (nM) 2nd experiment
measuredProperty: IC50
Write the numeric value and append its unit.

Task item: Param readout= IC50; system= BT-474; entry= CC[C@@]1(O)C(=O)OCc2c1cc1n(c2=O)Cc2c-1nc1ccc(N)c3c1c2C(F)(F)CC3 [Compound 3] ; returns value.
Reply: 0.5 nM

----------
- Test system: NCI-N87 human gastric cancer cells
- experiment: Comparative study of the activity of camptothecins (CCK-8 cell killing)
- Assay type: cell-based
- testContext: Homo sapiens, 96 h; NCI-N87, killing days 4 days; read-out: EC50
measuredProperty: EC50 (nM)
Numbers only, in nM.

Task item: For the compound shown here, CCC1(O)CC(=O)OCc2c1cc1n(c2=O)Cc2c-1nc1ccc(N)c3c1c2CCC3 (stereo not shown) , give the reported EC50.
Reply: 7.43

----------
- Test system: Colo 205
- experiment: Proliferation-inhibiting effect on tumor cells (SRB or MTT assay)
- Type: cell-based
- testContext: Homo sapiens, COLO 205, 144 h, read-out: IC50 (nM) 1st experiment
measuredProperty: IC50 (nM)
Answers are plain numbers, in nM.

Task item: For the compound shown here, CC[C@@]1(O)C(=O)OCc2c1cc1n(c2=O)Cc2c-1nc1ccc(N)c3c1c2C(F)(F)CC3 [Compound 3] , give the reported IC50.
Reply: 0.2

FYI, the data here is from patent US20250059201A1.
